Measured Target: human NK3 (Homo sapiens, UniProt P29371)
Sequence (P29371 whole entry): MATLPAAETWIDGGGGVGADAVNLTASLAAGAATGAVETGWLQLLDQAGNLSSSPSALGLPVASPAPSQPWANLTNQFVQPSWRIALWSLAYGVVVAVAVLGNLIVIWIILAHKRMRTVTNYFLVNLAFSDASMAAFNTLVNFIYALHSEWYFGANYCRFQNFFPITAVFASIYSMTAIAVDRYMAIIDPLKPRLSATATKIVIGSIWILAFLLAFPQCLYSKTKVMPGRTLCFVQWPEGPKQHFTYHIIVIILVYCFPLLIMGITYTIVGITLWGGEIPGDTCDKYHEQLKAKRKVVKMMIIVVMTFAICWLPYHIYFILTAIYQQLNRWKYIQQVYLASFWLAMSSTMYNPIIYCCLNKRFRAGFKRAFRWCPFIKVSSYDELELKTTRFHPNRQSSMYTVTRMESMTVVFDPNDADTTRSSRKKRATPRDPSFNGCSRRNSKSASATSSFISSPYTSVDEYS
Assay: FLIPR calcium assay in antagonist mode (NKB EC70 challenge)
Assay Setup: stable cell line expressing human recombinant NK3; antagonist mode vs EC70 of NKB agonist
Source text: Stable Cell Lines: A human recombinant NK3 Tachykinin Receptor stable cell line was purchased from GenScript (Genscript, Cat. #M00201; GenBank Accession Number NM 001059). […] This bank of assay-ready frozen cells was later used in FLIPR assays to evaluate the potency and efficacy of NK3 antagonist test compounds. […] Calculation of NKB EC70: An EC70 concentration of NKB needed to be determined for competition against test antagonists prior to the compound screen. […]
I'd be grateful if you could share measured log10(IC50) for these entries.
On a log10 scale: recorded IC50, unit nM.

Recorded log10(IC50) (compound Cn1cc(-c2cccc(F)c2-c2nc3cc(C(=O)N[C@H]4CC[C@H](CO)OC4)ccn3c2Cl)c(F)n1 ): -0.01

Recorded log10(IC50) (compound Cc1nn(C)cc1-c1cccc(F)c1-c1nc2cc(C(=O)N[C@@H]3CO[C@H]4[C@@H]3OC[C@H]4O)ccn2c1C#N ): 0.46

Recorded log10(IC50) (compound Cc1c(-c2ccccc2-c2cn(C)nc2C(F)(F)F)nc2cc(C(=O)N[C@@H]3CO[C@H]4[C@@H]3OC[C@H]4O)ccn12 ): 0.51

Recorded log10(IC50) (compound Cc1nn(C)cc1-c1ccccc1-c1nc2cc(C(=O)N3C[C@@H]4NCCN[C@@H]4C3)ccn2c1Cl ): 1.35

Recorded log10(IC50) (compound Cc1nn(C)cc1-c1ccccc1-c1nc2cc(C(=O)N[C@H]3CO[C@H]4[C@@H]3OC[C@@H]4O)ccn2c1Cl ): 0.63

Recorded log10(IC50) (compound C[C@]1(O)C[C@H](NC(=O)c2ccn3c(Cl)c(-c4ccccc4-c4cnn(C(F)F)c4Cl)nc3c2)C1 ): 0.00

Recorded log10(IC50) (compound Cc1nn(C)cc1-c1ccccc1-c1nc2cc(C(=O)N3CCNCC3)ccn2c1C ): 1.31
